Test system: NanoLuc luciferase (NLuc)
Test: normalised percent inhibition of luminescence (vs positive and negative controls); higher = stronger inhibition
Details: metal salt concentration 0.1 mM; screening conditions buffer
OBSERVABLE: normalised percent inhibition (%)
Response body: numeric value in %, unit text excluded.

Worked cases, answers included:
O=[N+]([O-])[O-].O=[N+]([O-])[O-].[Cd+2] [cadmium nitrate] ... 7.22
O=S(=O)([O-])[O-].[Fe+2] [iron(II) sulfate] ... 37.5

Now look at this one.
Would you kindly share the measured normalised percent inhibition for O=[N+]([O-])[O-].O=[N+]([O-])[O-].[Zn+2] [zinc nitrate] ?
66
